- assayed target: rat INPP5K (Rattus norvegicus, UniProt A0A0G2K2Z2)
- Sequence (A0A0G2K2Z2 1-446): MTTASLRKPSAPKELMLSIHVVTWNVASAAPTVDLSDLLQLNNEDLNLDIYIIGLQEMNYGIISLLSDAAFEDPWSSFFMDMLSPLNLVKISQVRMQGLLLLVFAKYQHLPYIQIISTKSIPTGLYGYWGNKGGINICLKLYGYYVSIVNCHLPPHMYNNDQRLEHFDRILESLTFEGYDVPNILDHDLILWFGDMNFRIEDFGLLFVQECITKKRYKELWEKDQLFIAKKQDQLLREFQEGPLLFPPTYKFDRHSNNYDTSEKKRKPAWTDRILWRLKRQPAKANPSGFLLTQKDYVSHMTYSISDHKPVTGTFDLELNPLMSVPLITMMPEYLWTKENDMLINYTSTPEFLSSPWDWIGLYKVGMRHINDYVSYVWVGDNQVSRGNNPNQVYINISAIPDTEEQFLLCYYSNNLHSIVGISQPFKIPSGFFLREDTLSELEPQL
pIC50: −log10 of the molar value.
quantity: pIC50

molecule: CC(C)c1sc(NC(=O)c2ccccc2)c(C(=O)O)c1-c1ccccc1
observed: < 4.00

====

- assayed target: human SHIP2 (Homo sapiens, UniProt O15357)
- Sequence (O15357 1-1258): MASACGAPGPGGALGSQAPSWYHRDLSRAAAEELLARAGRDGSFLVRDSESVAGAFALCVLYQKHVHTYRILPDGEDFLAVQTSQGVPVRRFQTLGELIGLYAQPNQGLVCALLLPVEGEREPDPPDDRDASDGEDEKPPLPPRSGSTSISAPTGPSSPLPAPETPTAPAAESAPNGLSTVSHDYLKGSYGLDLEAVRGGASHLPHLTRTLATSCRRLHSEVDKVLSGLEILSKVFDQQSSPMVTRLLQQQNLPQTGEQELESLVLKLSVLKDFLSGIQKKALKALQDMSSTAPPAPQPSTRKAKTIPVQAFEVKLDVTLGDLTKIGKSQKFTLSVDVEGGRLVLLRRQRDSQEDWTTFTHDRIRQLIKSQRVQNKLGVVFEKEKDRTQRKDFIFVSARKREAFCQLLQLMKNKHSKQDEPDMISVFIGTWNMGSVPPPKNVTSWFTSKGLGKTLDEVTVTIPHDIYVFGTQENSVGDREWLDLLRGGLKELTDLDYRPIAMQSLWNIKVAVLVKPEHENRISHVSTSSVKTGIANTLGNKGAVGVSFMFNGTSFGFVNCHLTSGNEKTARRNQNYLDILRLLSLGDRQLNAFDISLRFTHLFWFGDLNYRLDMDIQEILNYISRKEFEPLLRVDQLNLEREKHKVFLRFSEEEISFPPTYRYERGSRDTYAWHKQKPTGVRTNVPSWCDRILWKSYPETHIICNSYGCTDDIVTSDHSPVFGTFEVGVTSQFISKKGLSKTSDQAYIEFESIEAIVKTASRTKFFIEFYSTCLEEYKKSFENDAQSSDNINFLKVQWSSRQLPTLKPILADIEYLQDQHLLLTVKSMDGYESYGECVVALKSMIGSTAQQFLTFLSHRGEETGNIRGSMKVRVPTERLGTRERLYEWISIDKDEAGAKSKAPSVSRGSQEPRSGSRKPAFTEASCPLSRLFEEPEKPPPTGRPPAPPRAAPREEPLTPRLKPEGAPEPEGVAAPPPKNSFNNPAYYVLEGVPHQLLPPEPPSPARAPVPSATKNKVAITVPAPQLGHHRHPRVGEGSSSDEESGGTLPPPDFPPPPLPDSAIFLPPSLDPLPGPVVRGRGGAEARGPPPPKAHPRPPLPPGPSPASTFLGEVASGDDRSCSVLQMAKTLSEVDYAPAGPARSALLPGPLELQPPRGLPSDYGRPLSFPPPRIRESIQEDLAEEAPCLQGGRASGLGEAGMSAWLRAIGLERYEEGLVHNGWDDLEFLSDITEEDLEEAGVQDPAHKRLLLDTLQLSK
pIC50: −log10 of the molar value.
quantity: pIC50

molecule: CC(C)c1sc(NC(=O)c2ccccc2)c(C(=O)O)c1-c1ccccc1
quantity: pIC50
observed: < 4.00

====

- assayed target: hamster INPP5K (Cricetulus griseus, UniProt G3HTF6)
- Sequence (G3HTF6 1-451): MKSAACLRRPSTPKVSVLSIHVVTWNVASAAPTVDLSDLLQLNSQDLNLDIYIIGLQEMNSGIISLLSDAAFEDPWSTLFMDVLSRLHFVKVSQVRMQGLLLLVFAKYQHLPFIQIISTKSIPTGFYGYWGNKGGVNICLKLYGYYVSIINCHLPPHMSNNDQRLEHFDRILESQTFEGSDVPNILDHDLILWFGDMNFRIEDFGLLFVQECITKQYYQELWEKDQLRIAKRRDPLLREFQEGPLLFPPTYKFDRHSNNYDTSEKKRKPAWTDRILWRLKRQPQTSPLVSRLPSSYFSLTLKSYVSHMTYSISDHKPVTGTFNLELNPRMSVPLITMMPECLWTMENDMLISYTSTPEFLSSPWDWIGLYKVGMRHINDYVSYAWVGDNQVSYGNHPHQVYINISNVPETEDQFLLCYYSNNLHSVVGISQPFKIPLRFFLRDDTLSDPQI
quantity: IC50 (µM)

molecule: CC(C)c1sc(NC(=O)c2ccccc2)c(C(=O)O)c1-c1ccccc1
observed: 8.2

====

- assayed target: guinea pig INPP5K (Cavia porcellus)
- Sequence (H0V8T7 entry or part of it): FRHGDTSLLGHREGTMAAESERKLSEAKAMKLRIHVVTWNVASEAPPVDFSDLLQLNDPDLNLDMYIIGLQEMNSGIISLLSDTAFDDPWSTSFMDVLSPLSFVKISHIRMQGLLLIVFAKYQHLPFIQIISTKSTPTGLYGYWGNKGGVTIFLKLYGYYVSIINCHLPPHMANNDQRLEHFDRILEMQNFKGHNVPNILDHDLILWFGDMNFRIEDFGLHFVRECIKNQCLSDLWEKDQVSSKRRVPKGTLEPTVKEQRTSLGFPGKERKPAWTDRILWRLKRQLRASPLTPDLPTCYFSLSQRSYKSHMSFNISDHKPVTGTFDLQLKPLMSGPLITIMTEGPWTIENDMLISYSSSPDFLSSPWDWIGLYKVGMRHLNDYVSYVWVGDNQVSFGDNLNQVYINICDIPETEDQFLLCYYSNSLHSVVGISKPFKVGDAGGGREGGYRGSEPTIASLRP

compound: CC(C)c1sc(NC(=O)c2ccccc2)c(C(=O)O)c1-c1ccccc1 [CPD-1]
IC50: 59 µM

====

- assayed target: human PIPP (Homo sapiens)
- Sequence (Q15735 whole entry): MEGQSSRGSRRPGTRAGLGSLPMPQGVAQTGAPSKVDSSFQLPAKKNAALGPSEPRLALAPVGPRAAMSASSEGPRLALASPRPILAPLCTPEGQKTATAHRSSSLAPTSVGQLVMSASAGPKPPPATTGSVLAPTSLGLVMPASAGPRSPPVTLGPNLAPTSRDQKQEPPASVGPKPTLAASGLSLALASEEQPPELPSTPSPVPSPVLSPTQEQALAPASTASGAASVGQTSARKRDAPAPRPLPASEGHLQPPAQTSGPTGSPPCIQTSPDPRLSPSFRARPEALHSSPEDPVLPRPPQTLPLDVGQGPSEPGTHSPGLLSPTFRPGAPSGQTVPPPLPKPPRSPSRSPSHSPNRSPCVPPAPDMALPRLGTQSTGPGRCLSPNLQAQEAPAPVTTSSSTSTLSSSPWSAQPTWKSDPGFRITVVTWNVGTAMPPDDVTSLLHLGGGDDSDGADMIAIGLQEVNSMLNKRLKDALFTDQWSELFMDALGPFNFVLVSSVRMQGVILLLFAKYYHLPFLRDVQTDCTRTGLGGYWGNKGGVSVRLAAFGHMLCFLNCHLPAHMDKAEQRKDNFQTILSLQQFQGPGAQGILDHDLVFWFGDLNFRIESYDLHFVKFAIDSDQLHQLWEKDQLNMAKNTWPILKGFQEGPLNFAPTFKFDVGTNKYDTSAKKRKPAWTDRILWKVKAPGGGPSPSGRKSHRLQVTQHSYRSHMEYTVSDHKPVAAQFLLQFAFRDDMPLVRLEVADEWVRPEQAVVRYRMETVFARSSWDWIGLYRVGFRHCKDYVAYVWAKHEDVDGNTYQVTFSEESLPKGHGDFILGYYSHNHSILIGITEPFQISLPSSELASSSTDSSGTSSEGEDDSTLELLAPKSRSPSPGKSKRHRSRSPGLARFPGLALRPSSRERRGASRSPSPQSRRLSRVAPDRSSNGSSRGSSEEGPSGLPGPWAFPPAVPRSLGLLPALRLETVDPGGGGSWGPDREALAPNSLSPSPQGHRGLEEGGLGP

molecule: CC(C)c1sc(NC(=O)c2ccccc2)c(C(=O)O)c1-c1ccccc1 [CPD-1]
IC50: > 100 µM

====

- assayed target: human delta-INPP5K-cd (loop-substituted catalytic domain) (Homo sapiens, UniProt Q9BT40, C280K/DEL284-290/G282N/G299D/H292G/INS279A/L297Q/R298K/S294L/S296T)
- Construct: human INPP5K catalytic domain (amino acids 1–328, INPP5K-cd, UniProt ID: Q9BT40); His6-MBP (MBP amino acids 1–387) (N, cleaved yes); TEV protease site ENLYFQG (N, cleaved yes)
- Sequence (Q9BT40 other isoform, or with tags, fused parts or gaps with the stated changes): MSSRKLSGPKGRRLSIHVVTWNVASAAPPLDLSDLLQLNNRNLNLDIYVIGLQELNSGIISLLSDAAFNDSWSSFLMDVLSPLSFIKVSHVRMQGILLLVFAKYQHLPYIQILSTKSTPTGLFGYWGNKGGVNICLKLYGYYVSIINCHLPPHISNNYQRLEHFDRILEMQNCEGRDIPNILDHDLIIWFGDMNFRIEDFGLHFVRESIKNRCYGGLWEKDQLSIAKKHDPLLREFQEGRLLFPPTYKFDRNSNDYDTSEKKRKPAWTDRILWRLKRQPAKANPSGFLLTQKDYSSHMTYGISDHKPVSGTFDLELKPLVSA
- assay explanation: Fluorescence polarization assay to evaluate phosphatase inhibition
- condition context: 20 µM diC8-PI(3,4,5)P3, 30 min

molecule: CC(C)c1sc(NC(=O)c2ccccc2)c(C(=O)O)c1-c1ccccc1
IC50 (nM): 2900

====

- assayed target: UniProtKB Q8C5L6
- Sequence (Q8C5L6 1-468): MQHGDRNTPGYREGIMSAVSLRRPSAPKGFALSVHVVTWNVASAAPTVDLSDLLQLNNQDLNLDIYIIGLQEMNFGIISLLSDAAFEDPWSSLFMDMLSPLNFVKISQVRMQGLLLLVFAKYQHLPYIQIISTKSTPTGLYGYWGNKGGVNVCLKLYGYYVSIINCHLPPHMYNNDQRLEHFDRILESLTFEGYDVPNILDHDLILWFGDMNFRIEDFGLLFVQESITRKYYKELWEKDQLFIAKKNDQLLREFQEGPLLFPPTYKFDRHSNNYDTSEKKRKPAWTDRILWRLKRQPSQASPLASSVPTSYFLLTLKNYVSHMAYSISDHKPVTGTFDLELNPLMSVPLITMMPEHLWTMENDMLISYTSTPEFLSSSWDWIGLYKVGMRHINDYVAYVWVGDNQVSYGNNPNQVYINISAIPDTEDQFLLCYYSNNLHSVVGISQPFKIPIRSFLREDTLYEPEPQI

molecule: CC(C)c1sc(NC(=O)c2ccccc2)c(C(=O)O)c1-c1ccccc1
IC50: > 100 µM
